- system: MAGL (Mus musculus)
- Construct: Proteomes (mouse brain membrane fraction or cell lysates); from tissue; host or cells: mouse brain membrane fraction (or cell lysates, not specified)
- Sequence (O35678 whole entry): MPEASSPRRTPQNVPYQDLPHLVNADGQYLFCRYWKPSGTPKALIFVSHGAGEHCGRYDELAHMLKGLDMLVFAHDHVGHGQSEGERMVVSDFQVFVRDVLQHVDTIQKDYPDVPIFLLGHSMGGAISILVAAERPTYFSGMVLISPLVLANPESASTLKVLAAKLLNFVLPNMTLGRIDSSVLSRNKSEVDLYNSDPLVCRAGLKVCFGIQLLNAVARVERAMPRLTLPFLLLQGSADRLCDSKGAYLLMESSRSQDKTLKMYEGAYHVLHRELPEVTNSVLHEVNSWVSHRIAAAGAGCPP
- experiment notes: In vitro competitive activity-based protein profiling (gel-based, FP-Rh or HT-01 probe)
- Assay type: biochemical
- reported conditions: mouse brain membrane fraction or cell lysates, 30 min preincubation at 37° C.; read-out: Mouse (IC50 value, nM) MAGL
metric: IC50

**Q:** Return reported IC50. Input compound: Cc1cnn(C(=O)N2CCN(C(c3ccc(Cl)cc3)c3ccc(Cl)cc3)CC2)c1
**A:** < 100 nM

Next:
**Q:** Return reported IC50. Input compound: CCN(Cc1cccc(OC)c1)C(=O)n1cc(Cl)cn1
**A:** > 1000 nM

**Q:** Return reported IC50. Input compound: COc1ccc(N2CCN(C(=O)n3cc(C(F)(F)F)cn3)CC2)cc1
**A:** < 100 nM

* * *

- system: FAAH (Mus musculus)
- Construct: Proteomes (mouse brain membrane fraction or cell lysates); from tissue; host or cells: mouse brain membrane fraction (or cell lysates, not specified)
- Sequence (O08914 1-579): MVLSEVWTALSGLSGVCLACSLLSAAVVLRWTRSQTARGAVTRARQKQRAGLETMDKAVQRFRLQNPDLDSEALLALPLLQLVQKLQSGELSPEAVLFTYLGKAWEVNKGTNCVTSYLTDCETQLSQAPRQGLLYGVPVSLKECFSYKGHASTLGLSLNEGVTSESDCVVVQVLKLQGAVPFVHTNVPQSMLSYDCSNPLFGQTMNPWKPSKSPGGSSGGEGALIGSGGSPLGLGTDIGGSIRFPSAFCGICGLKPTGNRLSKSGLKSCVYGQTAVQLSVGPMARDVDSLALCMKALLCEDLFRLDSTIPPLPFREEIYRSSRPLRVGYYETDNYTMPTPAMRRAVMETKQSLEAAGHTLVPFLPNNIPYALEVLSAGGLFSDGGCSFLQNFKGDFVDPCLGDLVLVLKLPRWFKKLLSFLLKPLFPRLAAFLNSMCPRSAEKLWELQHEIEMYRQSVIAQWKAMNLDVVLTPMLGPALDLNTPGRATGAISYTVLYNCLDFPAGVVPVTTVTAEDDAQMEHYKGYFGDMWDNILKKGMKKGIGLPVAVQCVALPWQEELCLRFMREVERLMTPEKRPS
- experiment notes: In vitro competitive activity-based protein profiling (gel-based, FP-Rh or HT-01 probe)
- Assay type: biochemical
- reported conditions: 10 μM inhibitor; read-out: % Inhibition at 10 μM, B = FAAH
metric: inhibition at 10 µM

Study these solved cases before continuing.
**Q:** Lab note: record inhibition at 10 µM of Cc1ccc(-c2cnn(C(=O)N3CCCC3)c2)cc1 tested on FAAH (Mus musculus).
**A:** > 75%

**Q:** Lab note: record inhibition at 10 µM of O=C(N1CCN(c2ccc(N3CCCC3)cc2)CC1)n1cc(C(F)(F)F)cn1 tested on FAAH (Mus musculus).
**A:** > 75%

**Q:** Lab note: record inhibition at 10 µM of O=C(c1cnn(C(=O)N2CCN(Cc3ccncc3)CC2)c1)N1CCOCC1 tested on FAAH (Mus musculus).
**A:** < 25%

**Q:** Lab note: record inhibition at 10 µM of O=C(NCc1ccc2ccccc2c1)n1cccn1 tested on FAAH (Mus musculus).
**A:** > 75%

**Q:** Lab note: record inhibition at 10 µM of O=C(N1CCN(Cc2ccc3c(c2)OCO3)CC1)n1cc(-c2ccccc2)cn1 tested on FAAH (Mus musculus).
**A:** > 75%

**Q:** Lab note: record inhibition at 10 µM of Cc1cnn(C(=O)N2CCN(Cc3c(N4CCCC4)cccc3C(F)(F)F)CC2)c1 tested on FAAH (Mus musculus).
**A:** 25 to 75%

**Q:** Lab note: record inhibition at 10 µM of CN(Cc1cccc(-c2ccncc2)c1)C(=O)n1cc(-c2ccccc2)cn1 tested on FAAH (Mus musculus).
**A:** > 75%

**Q:** Lab note: record inhibition at 10 µM of CC(=O)N1CCCN(C(=O)n2cc(C(F)(F)F)cn2)CC1 tested on FAAH (Mus musculus).
**A:** 25 to 75%

Next:
**Q:** Lab note: record inhibition at 10 µM of Cc1ccccc1-c1cnn(C(=O)N2CCN(C(c3ccc(Cl)cc3)c3ccc(Cl)cc3)CC2)c1 tested on FAAH (Mus musculus).
**A:** < 25%

**Q:** Lab note: record inhibition at 10 µM of N#Cc1cnn(C(=O)N2CCN(C(=O)c3ccccc3)CC2)c1 tested on FAAH (Mus musculus).
**A:** 25 to 75%

**Q:** Lab note: record inhibition at 10 µM of O=C(N1CCCC1)n1cc(-c2ccc(Cl)cc2)cn1 tested on FAAH (Mus musculus).
**A:** > 75%

**Q:** Lab note: record inhibition at 10 µM of O=C(N1CCN(Cc2ccc(Cl)c(Cl)c2)CC1)n1cc(Cl)cn1 tested on FAAH (Mus musculus).
**A:** > 75%

**Q:** Lab note: record inhibition at 10 µM of O=C(N1CCN(c2cccc(Cl)c2)CC1)n1cc(C(F)(F)F)cn1 tested on FAAH (Mus musculus).
**A:** > 75%

**Q:** Lab note: record inhibition at 10 µM of O=C(c1cnn(C(=O)N2CCN(Cc3nccs3)CC2)c1)N1CCC1 tested on FAAH (Mus musculus).
**A:** > 75%

**Q:** Lab note: record inhibition at 10 µM of Cc1cc(-c2ccccc2)ccc1CN1CCN(C(=O)n2cc(C(=O)N3CCCC3)cn2)CC1 tested on FAAH (Mus musculus).
**A:** > 75%

**Q:** Lab note: record inhibition at 10 µM of O=C(c1cnn(C(=O)N2CCN(Cc3nccs3)CC2)c1)N1CCOCC1 tested on FAAH (Mus musculus).
**A:** 25 to 75%

**Q:** Lab note: record inhibition at 10 µM of Cc1cc(N2CCN(C(=O)n3cc(-c4ccccc4)cn3)CC2)c2ccccc2n1 tested on FAAH (Mus musculus).
**A:** > 75%

**Q:** Lab note: record inhibition at 10 µM of Cc1cnn(C(=O)Nc2ccc3ccccc3c2)c1 tested on FAAH (Mus musculus).
**A:** < 25%

**Q:** Lab note: record inhibition at 10 µM of CCN(Cc1cccc(Cl)c1)C(=O)n1cc(Cl)cn1 tested on FAAH (Mus musculus).
**A:** > 75%

* * *

- system: FAAH (Mus musculus)
- Construct: Proteomes (mouse brain membrane fraction or cell lysates); from tissue; host or cells: mouse brain membrane fraction (or cell lysates, not specified)
- Sequence (O08914 1-579): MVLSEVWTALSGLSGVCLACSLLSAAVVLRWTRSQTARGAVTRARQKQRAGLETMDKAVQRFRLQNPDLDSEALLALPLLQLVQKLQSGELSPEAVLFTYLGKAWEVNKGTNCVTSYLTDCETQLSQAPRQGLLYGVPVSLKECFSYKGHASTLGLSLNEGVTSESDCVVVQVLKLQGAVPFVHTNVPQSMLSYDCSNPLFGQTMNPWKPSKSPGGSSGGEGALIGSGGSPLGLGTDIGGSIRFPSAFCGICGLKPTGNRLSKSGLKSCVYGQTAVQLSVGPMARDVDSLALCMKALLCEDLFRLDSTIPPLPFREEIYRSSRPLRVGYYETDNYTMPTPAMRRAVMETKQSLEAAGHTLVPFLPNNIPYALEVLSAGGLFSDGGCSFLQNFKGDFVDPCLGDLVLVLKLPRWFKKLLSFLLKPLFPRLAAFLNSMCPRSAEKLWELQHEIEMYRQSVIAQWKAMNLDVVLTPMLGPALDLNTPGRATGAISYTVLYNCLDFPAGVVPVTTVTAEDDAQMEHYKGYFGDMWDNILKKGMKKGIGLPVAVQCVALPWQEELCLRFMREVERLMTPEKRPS
- experiment notes: In vitro competitive activity-based protein profiling (gel-based, FP-Rh or HT-01 probe)
- Format: biochemical
- reported conditions: 10 μM inhibitor; read-out: % Inhibition at 10 μM, B = FAAH
metric: inhibition at 10 µM

Study these solved cases before continuing.
**Q:** Return reported inhibition at 10 µM. Input compound: Cc1cnn(C(=O)N(C)CCN(C)S(C)(=O)=O)c1
**A:** < 25%

**Q:** Return reported inhibition at 10 µM. Input compound: O=C(c1cnn(C(=O)N2CCN(Cc3ccccn3)CC2)c1)N1CCC1
**A:** > 75%

**Q:** Return reported inhibition at 10 µM. Input compound: CN1CCN(C(=O)n2cc(Cl)cn2)CC1
**A:** > 75%

**Q:** Return reported inhibition at 10 µM. Input compound: CS(=O)(=O)N1CCN(C(=O)n2cc(C#N)cn2)CC1
**A:** 25 to 75%

**Q:** Return reported inhibition at 10 µM. Input compound: CN(CCN(C)S(C)(=O)=O)C(=O)n1cc(C(F)(F)F)cn1
**A:** > 75%

**Q:** Return reported inhibition at 10 µM. Input compound: O=C(c1cnn(C(=O)N2CCN(Cc3cccnc3)CC2)c1)N1CCCCC1
**A:** 25 to 75%

Next:
**Q:** Return reported inhibition at 10 µM. Input compound: Cc1cc(-c2ccccc2)ccc1CN1CCN(C(=O)n2cc(C(=O)N3CCCCC3)cn2)CC1
**A:** > 75%

**Q:** Return reported inhibition at 10 µM. Input compound: O=C(c1cnn(C(=O)N2CCN(Cc3cccnc3)CC2)c1)N1CCCC1
**A:** 25 to 75%

**Q:** Return reported inhibition at 10 µM. Input compound: Cc1cnn(C(=O)N2CCN(C(=O)OC(C)(C)C)CC2)c1
**A:** > 75%
